Data credit: PubChem BioAssay (NCI)

For each entry below, report its TGI value.
system: PC-3 prostate; experiment: NCI tumour cell line growth inhibition, 48 h
Where a SMILES comes first, the peptide text is derived from it. [ ]: non-standard residue; d: D form. The star is where a group is joined. NMeF = CN[C@@H](Cc1ccccc1)C(=O)O; NMeV = CN[C@H](C(=O)O)C(C)C; Boc = CC(C)(C)OC(=O)*; OBn = c1ccc(CO*)cc1

Past entries and their recorded results:
COMPOUND | TGI
O=C1NC(c2c(Cl)cccc2Cl)Nc2ccccc21 (stereo not drawn) | > 100 µM
Cc1cc(=O)oc2c(OS(C)(=O)=O)c(OS(C)(=O)=O)ccc12 | > 100 µM
CCC1c2[nH]c3ccccc3c2C[C@H]2C(=O)N3CCC[C@H]3C(=O)N12 (stereo partly drawn) | > 100 µM

For each listed entry, give its TGI.
1. CCC1c2[nH]c3ccccc3c2C[C@H]2C(=O)NC(CCCCNC(=O)OC(C)(C)C)C(=O)N12 (stereo partly drawn)
2. CCCC(=O)Nc1ccc2c(c1)CN1C(=O)c3ccccc3C1=N2
3. CC(C)[C@@H](C(=O)N1CCC[C@H]1C(=O)OCc1ccccc1)N(C)C(=O)[C@H](C(C)C)N(C)C(=O)[C@H](Cc1ccccc1)N(C)C(=O)[C@H](NC(=O)OC(C)(C)C)C(C)C (Boc-[dV][NMeF][NMeV][NMeV]P-OBn)
4. Cc1c2cc[n+](C)cc2c(C)c2c1[nH]c1ccc(Cl)cc12

58.7 µM
> 100 µM
> 50 µM
> 43.2 µM

Please give the measured TGI for this compound: O=C1CCC(N2Cc3c(C#CCCCNC(=O)c4cc5c(o4)C(=O)c4ccccc4C5=O)cccc3C2=O)C(=O)N1 (stereo not drawn)
56.2 µM
